- Assayed System: TNFα (Homo sapiens, UniProt P01375)
- Sequence (P01375 77-233 limits assumed): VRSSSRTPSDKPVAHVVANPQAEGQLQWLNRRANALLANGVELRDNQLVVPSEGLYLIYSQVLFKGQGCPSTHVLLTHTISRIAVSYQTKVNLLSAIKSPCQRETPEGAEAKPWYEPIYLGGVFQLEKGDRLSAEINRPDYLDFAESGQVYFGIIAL
- Experiment Description: TNF-Induced HEK-Blue Assay
- Format: cell-based
- Cond: HEK-Blue-CD40L cells, NF-kB-driven secreted alkaline phosphatase reporter; TNFα 0.5 ng/ml; 18 h; read-out: TNF induced HEK-Blue assay IC50 value
pIC50: −log10 of the molar value. Positions of bridges follow the written chain, without caps; N, C: chain ends. Non-standard residues stand in square brackets, D forms with d. Residues, ends and D or L forms follow the SMILES beside them. Ala(morpholin-4-yl) = N[C@@H](CN1CCOCC1)C(=O)O; Bip = N[C@@H](Cc1ccc(-c2ccccc2)cc1)C(=O)O; Aze = O=C(O)[C@@H]1CCN1; Sar = CNCC(=O)O
Value Type: pIC50

IN: Data request, read-out pIC50, for CC(C)C[C@@H]1NC(=O)[C@H](Cc2ccc(O)cc2)NC(=O)[C@H](C(C)C)NC(=O)[C@@H]2CCN2C(=O)[C@H](C(C)C)NC(=O)[C@@H](CCCNC(=N)N)NC(=O)[C@H](CC(=O)O)NC(=O)[C@H](Cc2ccc(O)cc2)NC(=O)CN(C)C(=O)[C@H](Cc2ccc(-c3ccccc3)cc2)NC(=O)[C@H](Cc2ccc(-c3ccccc3)cc2)NC(=O)[C@H](CN2CCOCC2)NC(=O)CSC[C@@H](C(=O)NCC(N)=O)NC1=O [Example 79] ({CH2CO}-[Ala(morpholin-4-yl)][Bip][Bip][Sar]YD[dR]V[Aze]VYLCG-NH2; thioether N-13)
OUT: > 7.30

----------
- Assayed System: TNFα (Homo sapiens)
- Experiment Description: TNF-Induced HEK-Blue Assay
- Assay type: cell-based
- Cond: HEK-Blue-CD40L cells, NF-kB-driven secreted alkaline phosphatase reporter; TNFα 0.5 ng/ml; 18 h; read-out: TNF induced HEK-Blue assay IC50 value
pIC50: −log10 of the molar value. Positions of bridges follow the written chain, without caps; N, C: chain ends. Non-standard residues stand in square brackets, D forms with d. Residues, ends and D or L forms follow the SMILES beside them. Bip = N[C@@H](Cc1ccc(-c2ccccc2)cc1)C(=O)O; 4Pal = N[C@@H](Cc1ccncc1)C(=O)O; Sar = CNCC(=O)O
Value Type: pIC50

IN: Need pIC50, item CC(C)C[C@@H]1NC(=O)[C@H](CCCNC(=N)N)NC(=O)[C@H](C(C)C)NC(=O)[C@@H]2CCCN2C(=O)[C@H](Cc2ccncc2)NC(=O)[C@H](CCCNC(=N)N)NC(=O)[C@H](CC(=O)O)NC(=O)[C@@H]2CCCN2C(=O)CN(C)C(=O)[C@H](Cc2ccc(-c3ccccc3)cc2)NC(=O)[C@H](Cc2ccc(-c3ccccc3)cc2)NC(=O)[C@H](Cc2ccccc2)NC(=O)CSC[C@@H](C(=O)NCC(N)=O)NC1=O [Example 25] ({CH2CO}-F[Bip][Bip][Sar]PDR[4Pal]PVRLCG-NH2; thioether N-13)
OUT: 5.70 to 6.70

----------
# key: entry, value: IC50
- Assayed System: TNFα (Homo sapiens)
- Experiment Description: TNF-Induced HEK-Blue Assay
- Type: cell-based
- Cond: HEK-Blue-CD40L cells, NF-kB-driven secreted alkaline phosphatase reporter; TNFα 0.5 ng/ml; 18 h; read-out: TNF induced HEK-Blue assay IC50 value
Positions of bridges follow the written chain, without caps; N, C: chain ends. Non-standard residues stand in square brackets, D forms with d. Residues, ends and D or L forms follow the SMILES beside them. ξ: configuration not given here. Bip(4'-NHAc) = CC(=O)Nc1ccc(-c2ccc(C[C@H](N)C(=O)O)cc2)cc1; Ala(morpholin-4-yl) = N[C@@H](CN1CCOCC1)C(=O)O; Bip = N[C@@H](Cc1ccc(-c2ccccc2)cc1)C(=O)O; Phe(4-F) = N[C@@H](Cc1ccc(F)cc1)C(=O)O; hArg = N=C(N)NCCCC[C@H](N)C(=O)O; ξIle = CC[C@H](C)C(N)C(=O)O; Sar = CNCC(=O)O

>  <Molecule>
CC[C@H](C)C1NC(=O)CSC[C@@H](C(=O)NCC(N)=O)NC(=O)[C@H](CC(C)C)NC(=O)[C@H](CCCNC(=N)N)NC(=O)[C@H](C(C)C)NC(=O)[C@@H]2CCCN2C(=O)[C@H](C(C)C)NC(=O)[C@H](CCCNC(=N)N)NC(=O)[C@H](CC(=O)O)NC(=O)[C@@H]2CCCN2C(=O)CN(C)C(=O)[C@H](Cc2ccc(-c3ccccc3)cc2)NC(=O)[C@H](Cc2ccc(-c3ccccc3)cc2)NC1=O (stereo partly shown) [Example 7] ({CH2CO}-[ξIle][Bip][Bip][Sar]PDRVPVRLCG-NH2; thioether N-13)

>  <IC50>
200 to 2000 nM

$$$$
>  <Molecule>
CC(C)C[C@@H]1NC(=O)[C@H](CCCCNC(=N)N)NC(=O)[C@H](C(C)C)NC(=O)[C@@H]2CCCN2C(=O)[C@H](C(C)C)NC(=O)[C@@H](CCCNC(=N)N)NC(=O)[C@H](CC(=O)O)NC(=O)[C@H](Cc2ccc(O)cc2)NC(=O)CN(C)C(=O)[C@H](Cc2ccc(-c3ccccc3)cc2)NC(=O)[C@H](Cc2ccc(-c3ccccc3)cc2)NC(=O)[C@H](CN2CCOCC2)NC(=O)CSC[C@@H](C(=O)NCC(N)=O)NC1=O [Example 159] ({CH2CO}-[Ala(morpholin-4-yl)][Bip][Bip][Sar]YD[dR]VPV[hArg]LCG-NH2; thioether N-13)

>  <IC50>
< 50 nM

$$$$
>  <Molecule>
CC(=O)Nc1ccc(-c2ccc(C[C@@H]3NC(=O)[C@H](Cc4ccc(-c5ccccc5)cc4)NC(=O)[C@H](CN4CCOCC4)NC(=O)CSC[C@@H](C(=O)NCC(N)=O)NC(=O)[C@H](CC(C)C)NC(=O)[C@H](Cc4ccc(O)cc4)NC(=O)[C@H](C(C)C)NC(=O)[C@@H]4CCCN4C(=O)[C@H](C(C)C)NC(=O)[C@@H](CCCNC(=N)N)NC(=O)[C@H](CC(=O)O)NC(=O)[C@@H]4CCCN4C(=O)CN(C)C3=O)cc2)cc1 [Example 125] ({CH2CO}-[Ala(morpholin-4-yl)][Bip][Bip(4'-NHAc)][Sar]PD[dR]VPVYLCG-NH2; thioether N-13)

>  <IC50>
< 50 nM

$$$$

Kindly review the next molecule as well.
IN: // returns reported IC50 for input CC(C)C[C@@H]1NC(=O)[C@H](CCCNC(=N)N)NC(=O)[C@H](C(C)C)NC(=O)[C@@H]2CCCN2C(=O)[C@H](Cc2ccc(F)cc2)NC(=O)[C@H](CCCNC(=N)N)NC(=O)[C@H](CC(=O)O)NC(=O)[C@@H]2CCCN2C(=O)CN(C)C(=O)[C@H](Cc2ccc(-c3ccccc3)cc2)NC(=O)[C@H](Cc2ccc(-c3ccccc3)cc2)NC(=O)[C@H](Cc2ccccc2)NC(=O)CSC[C@@H](C(=O)NCC(N)=O)NC1=O [Example 23] ({CH2CO}-F[Bip][Bip][Sar]PDR[Phe(4-F)]PVRLCG-NH2; thioether N-13)
OUT: 200 to 2000 nM

----------
- Assayed System: TNFα (Homo sapiens)
- Experiment Description: TNF-Induced HEK-Blue Assay
- Type: cell-based
- Cond: HEK-Blue-CD40L cells, NF-kB-driven secreted alkaline phosphatase reporter; TNFα 0.5 ng/ml; 18 h; read-out: TNF induced HEK-Blue assay IC50 value
pIC50: −log10 of the molar value. Positions of bridges follow the written chain, without caps; N, C: chain ends. Non-standard residues stand in square brackets, D forms with d. Residues, ends and D or L forms follow the SMILES beside them. Bip(4'-NHAc) = CC(=O)Nc1ccc(-c2ccc(C[C@H](N)C(=O)O)cc2)cc1; Ala(morpholin-4-yl) = N[C@@H](CN1CCOCC1)C(=O)O; Bip = N[C@@H](Cc1ccc(-c2ccccc2)cc1)C(=O)O; 2Thi = N[C@@H](Cc1cccs1)C(=O)O; Cha = N[C@@H](CC1CCCCC1)C(=O)O; Sar = CNCC(=O)O
Value Type: pIC50

>  <Molecule>
CC(=O)Nc1ccc(-c2ccc(C[C@@H]3NC(=O)[C@H](CN4CCOCC4)NC(=O)CSC[C@@H](C(=O)NCC(N)=O)NC(=O)[C@H](C(C)C)NC(=O)[C@H](CCCNC(=N)N)NC(=O)[C@H](C(C)C)NC(=O)[C@@H]4CCCN4C(=O)[C@H](C(C)C)NC(=O)[C@@H](CCCNC(=N)N)NC(=O)[C@H](CC(=O)O)NC(=O)[C@@H]4CCCN4C(=O)CN(C)C(=O)[C@H](Cc4ccc(-c5ccccc5)cc4)NC3=O)cc2)cc1 [Example 85] ({CH2CO}-[Ala(morpholin-4-yl)][Bip(4'-NHAc)][Bip][Sar]PD[dR]VPVRVCG-NH2; thioether N-13)

>  <pIC50>
5.70 to 6.70

$$$$

Alright, here's another molecule for you.
IN: Param item = CC(=O)Nc1ccc(-c2ccc(C[C@@H]3NC(=O)[C@H](Cc4ccc(-c5ccccc5)cc4)NC(=O)[C@H](CC4CCCCC4)NC(=O)CSC[C@@H](C(=O)NCC(N)=O)NC(=O)[C@H](CC(C)C)NC(=O)[C@H](Cc4cccs4)NC(=O)[C@H](C(C)C)NC(=O)[C@@H]4CCCN4C(=O)[C@H](C(C)C)NC(=O)[C@@H](CCCNC(=N)N)NC(=O)[C@H](CC(=O)O)NC(=O)[C@@H]4CCCN4C(=O)CN(C)C3=O)cc2)cc1 [Example 289] ({CH2CO}-[Cha][Bip][Bip(4'-NHAc)][Sar]PD[dR]VPV[2Thi]LCG-NH2; thioether N-13) ; retrieve measured pIC50.
OUT: 6.70 to 7.30
